test system: HepG2; test: cytotoxicity call (relative viability < 0.9); conditions: 10 µM
Out of some 39,000 compounds screened, about 3,300 (8.5%) were called active. What follows is part of a selection rich in actives, with near analogues and random picks from the rest.
API: response.call in T = active, F = inactive

Please review the following examples before continuing.
STRUCTURE	LABEL_CLASS
O=C(NC[C@@H](O)CO)[C@]1(Cc2ccccc2)N=C(c2ccc(OCCCO)cc2)O[C@@H]1c1ccccc1	F
CC(C)(C)OC(=O)CC[C@]1(C(=O)NCc2ccccc2)N=C(c2ccc(OCCCO)cc2)O[C@H]1c1ccccc1	T
[N-]=[N+]=NCc1ccccc1C[C@]1(C(=O)NC[C@@H](O)CO)N=C(c2ccc(OCCCO)cc2)O[C@H]1c1ccccc1	F
[N-]=[N+]=Nc1ccccc1C[C@@]1(C(=O)N2CCCCC2)N=C(c2ccc(OCCCO)cc2)O[C@@H]1c1ccccc1	F
C[C@@H]1CCCCO[C@@H](CN(C)C(=O)CCCN(C)C)[C@@H](C)CN([C@@H](C)CO)C(=O)c2cc(N(C)C)ccc2O1	F

Ask: # fetch the recorded call for Cc1[nH]c2ccccc2c1C(=O)CSc1ccc(Cl)cc1 here
Reply: F

Ask: Lookup NCC[S@@](=O)c1c(-c2ccc(F)cc2)[nH]c2ccccc12
Reply: F

Ask: Lookup [N-]=[N+]=NCc1ccccc1C[C@@]1(C(=O)N2CCCCC2)N=C(c2ccc(OCCCO)cc2)O[C@@H]1c1ccccc1
Reply: F

Ask: Lookup O=C(NC[C@@H](O)CO)[C@]1(CCS(=O)(=O)c2ccccc2)N=C(c2ccc(OCCCO)cc2)O[C@@H]1c1ccccc1
Reply: F

Ask: Lookup CC(C)NC(=O)Nc1ccc2c(c1)C(=O)N([C@@H](C)CO)C[C@@H](C)[C@H](CN(C)S(=O)(=O)c1ccccc1)O2
Reply: F

Recorded values, source the antibiotic and cytotoxicity screens of Wong et al. (2023).
